Species: Cavia porcellus
TEST METHOD NOTES: In vitro activity in guinea pig atria was measured as rate of spontaneously beating right atrium (SR) which reflects the activity of the sinus node
Format: functional
PARTICULARS: Cardiac atrium
I'd appreciate it if you could supply EC75 values for the items below.
Numbers only, in nM.

INSERT INTO assay_data (compound, data_value) VALUES
  ('CCCC1(C)C2CN(C(C)C)CC1CN(C(C)C)C2 (stereo unspecified)', 1990),
  ('C=CCCN1CC2CN(CCC=C)CC(C1)C2(C)C', 1210),
  ('CCCCN1CC2CN(CCCC)CC(C1)C2(C)C', 3000);

Hi! Can you tell me EC75 for each of these compounds?
1. C=CCCN1CC2CN(CCC=C)CC(C1)C21CCCCC1
2. CCCCN1CC2CN(CCCC)CC(C1)C21CCC1
3. CCCCN1CC2CN(CCCC)CC(C1)C2(CCCC)CCCC
4. CCCCC1(CCCC)C2CN(CC3CCCCC3)CC1CN(C(C)C)C2
5. CC(C)CN1CC2CN(C(C)C)CC(C1)C21CCCCC1
6. C=CCCN1CC2CN(CC(C)C)CC(C1)C2(CCC)CCC
7. C1CCC(CN2CC3CN(CC4CCCCC4)CC(C2)C32CCCCC2)CC1
8. CCCC1(CCC)C2CN(C(C)C)CC1CN(C(C)C)C2

OUT:
1: 400; 2: 520; 3: 1910; 4: 1900; 5: 1000; 6: 440; 7: 7570; 8: 2180

Can you give me EC75 for all of these, one by one?
1. CCCCN1CC2CN(CCCC)CC(C1)C2(C)CC (stereo unspecified)
2. CCCCCCN1CC2CN(CCCCCC)CC(C1)C2(CC)CCCC (stereo unspecified)
3. C=CCCN1CC2CN(CCCC)CC(C1)C2(C)C
4. C1CCC2(C1)C1CN(CC3CC3)CC2CN(CC2CC2)C1

OUT:
[3210, 600, 1210, 1300]

====

What ED75 was measured for each of the following?
System: Rattus norvegicus
TEST METHOD NOTES: In vivo activity in anesthetized rat was measured as heart rate which provides information on in vivo bradycardic activity
Assay type: functional
Numbers only, in µM/kg.

Kindly give each listed record's ED75.
1. CCCCN1CC2CN(CCCC)CC(C1)C2(C)C
2. C1CCC(CN2CC3CN(CC4CCCCC4)CC(C2)C32CCCCC2)CC1
3. CCCCN1CC2CN(CC3CCCCC3)CC(C1)C2(C)C
4. CCCCCCN1CC2CN(CCCCCC)CC(C1)C21CCCC1

OUT:
5.3
20
5.7
14

====

Species on record: Cavia porcellus
TEST METHOD NOTES: In vitro activity in guinea pig atria was measured as rate of spontaneously beating right atrium (SR) which reflects the activity of the sinus node
Format: functional
PARTICULARS: Cardiac atrium
Hi! Just check whether EC75 is below 4 µM. Below gives yes, equal or above gives no.

INSERT INTO assay_data (molecule, assigned_class) VALUES
  ('CCCN1CC2CN(CCC)CC(C1)C2(CC)CC', 'yes'),
  ('CCCCN1CC2CN(CC3CCCCC3)CC(C1)C2(C)C', 'yes'),
  ('CCCCN1CC2CN(CC(C)C)CC(C1)C2(C)C', 'yes'),
  ('CCC1(C)C2CN(CC3CCCCC3)CC1CN(CC1CCCCC1)C2 (stereo unspecified)', 'no'),
  ('C=CCN1CC2CN(CC=C)CC(C1)C2(C)C', 'no');

Shifting focus to the molecule that follows.
IN: Record "CC(C)N1CC2CN(C(C)C)CC(C1)C2(C)C" : is its EC75 strictly below 4 µM?
OUT: no

Values from ChEMBL document CHEMBL1131456
